# reported Suppressive Rate; entries follow
- Test system: mice
- assay remarks: Test for analgesic effect (4): acetic acid writhing test
- Assay type: in vivo, mouse (ddY strain)
- applied conditions: oral 10 mg/kg single dose; writhing numbers during 10 minutes
readout type: Suppressive Rate (%)

{"columns": ["smiles repr", "reading"],
 "data": [
  ["CCn1cncc1C[C@H](NC(=O)C=Cc1ccccc1)C(=O)O", 27.7],
  ["C=CC(=O)N[C@@H](Cc1cncn1C)C(=O)O", 33.1],
  ["CC=C(C)C(=O)N[C@@H](Cc1cncn1CC)C(=O)O", 36.1],
  ["C=CC(=O)N[C@@H](Cc1cncn1Cc1ccccc1)C(=O)O", 37.9],
  ["CC(C)=CC(=O)N[C@@H](Cc1cncn1C)C(=O)O", 17.8],
  ["CC=CC(=O)N[C@@H](Cc1cncn1CC)C(=O)O", 32.9]
]}
